- System: nude mice, LX-1 lung xenograft intrarenal, tumor weight T/C
- PROTOCOL: NCI In Vivo Anticancer Drug Screen. Data for tumor model Human Lung LX-1 Xenograft (intrarenal inoculation) in NU/NU Swiss (nude) mice
- TEST_PARAMETERS: endpoint: mean tumor weight change; dose: 0.5 mg/kg/injection; schedule: Q01DX010 (sc); vehicle: saline; higher = larger tumour
Results filed as inconclusive are left out.
EXPERIMENTAL_ENDPOINT: T/C

Record excerpt, results attached:
{"COMPOUND": "COc1cc2c(c(OC)c1OC)-c1ccc(OC)c(=O)cc1[C@@H](NC(C)=O)CC2", "MEASURED_VALUE": "50 % of control"}
{"COMPOUND": "COc1cccc2c1C(=O)c1c(O)c3c(c(O)c1C2=O)C[C@@](O)(C(C)=O)C[C@@H]3OC1CC(N)C(O)C(C)O1 (stereo partly drawn)", "MEASURED_VALUE": "45 % of control"}
{"COMPOUND": "CC[C@]1(O)C[C@H]2CN(CCc3c([nH]c4ccccc34)[C@@](C(=O)OC)(c3cc4c(cc3OC)N(C=O)[C@H]3[C@@](O)(C(=O)OC)[C@H](OC(C)=O)[C@]5(CC)C=CCN6CC[C@]43[C@@H]65)C2)C1", "MEASURED_VALUE": "1 % of control"}
{"COMPOUND": "COC(=O)C[C@](O)(CCCC(C)(C)O)C(=O)O[C@@H]1C(OC)=C[C@]23CCCN2CCc2cc4c(cc2[C@H]13)OCO4", "MEASURED_VALUE": "115 % of control"}

Request body: readout T/C, system nude mice, LX-1 lung xenograft intrarenal, tumor weight T/C, query NC(=O)c1cn(C2OC(CO)C(O)C2O)c2ncnc(N)c12 (stereo not drawn) . Return the value.
74 % of control

Item: COc1cc([C@@H]2c3cc4c(c(O)c3C[C@H]3COC(=O)[C@@H]32)OCO4)cc(OC)c1OC
50 % of control

Item: O=NNc1ccccn1
211 % of control

Item: COc1cc([C@@H]2c3cc4c(c(O)c3C[C@H]3COC(=O)[C@@H]32)OCO4)cc(OC)c1O
205 % of control

###

- System: nude mice, LX-1 lung xenograft intrarenal, tumor weight T/C
- PROTOCOL: NCI In Vivo Anticancer Drug Screen. Data for tumor model Human Lung LX-1 Xenograft (intrarenal inoculation) in NU/NU Swiss (nude) mice
- TEST_PARAMETERS: endpoint: mean tumor weight change; dose: 0.25 mg/kg/injection; schedule: Q04DX003 (sc); vehicle: saline + alcohol; higher = larger tumour
Results filed as inconclusive are left out. Numbered stars: 1 amine (or outer) side, 2 acyl side, 3 side chain; on linkers, the order of the positions; unused ones are H or OH. Bridge positions count the residues as written; N and C are the ends. Square brackets hold non-standard residues; d marks the D form. Peptide text beside a SMILES is read from it. I, II: the chains in the order shown. Actinocin(1to9) = Cc1c2oc3c(C)ccc(C(=O)[*:2])c3nc-2c(C(=O)[*:1])c(N)c1=O; NMeV = CN[CH](C(=O)O)C(C)C; Aze = O=C(O)[CH]1CCN1; Sar = CNCC(=O)O
Recorded T/C values for a group of molecules are listed next.

Record excerpt, results attached:
{"MOLECULE": "CO[C@H]1Nc2c(ccc(C)c2O)C(=O)N2C=C(/C=C/C(N)=O)C[C@@H]12", "EXPERIMENTAL_ENDPOINT": "T/C", "MEASURED_VALUE": "48 % of control"}
{"MOLECULE": "Cc1c2oc3c(C)ccc(C(=O)NC4C(=O)NC(C(C)C)C(=O)N5CCCC5C(=O)N(C)CC(=O)N(C)C(C(C)C)C(=O)OC4C)c3nc-2c(C(=O)NC2C(=O)NC(C(C)C)C(=O)N3CCC3C(=O)N(C)CC(=O)N(C)C(C(C)C)C(=O)OC2C)c(N)c1=O (centres undefined) (I: TV[Aze][Sar][NMeV] / II: TVP[Sar][NMeV]; ester I:1-I:C, II:1-II:C; linker I:N-II:N via Actinocin(1to9); configuration not given here)", "EXPERIMENTAL_ENDPOINT": "T/C", "MEASURED_VALUE": "58 % of control"}
{"MOLECULE": "CCC/C=C/C=C/C(=O)OC1/C(=C/C(=O)OC)CC2CC(C(C)O)OC(=O)CC(O)CC3CC(OC(C)=O)C(C)(C)C(O)(CC4C/C(=C/C(=O)OC)CC(/C=C/C(C)(C)C1(O)O2)O4)O3 (centres undefined)", "EXPERIMENTAL_ENDPOINT": "T/C", "MEASURED_VALUE": "112 % of control"}

// below: T/C requested for another molecule
# lookup: T/C of COC(=O)[C@@]12OC[C@]34[C@H]([C@@H](O)[C@@H]1O)[C@@]1(C)CC(=O)C(O)=C(C)[C@@H]1C[C@H]3OC(=O)[C@H](OC(=O)/C=C(\C)C(C)C)[C@@H]24
115 % of control

###

Recorded T/C values for a group of compounds are listed next.
- System: nude mice, LX-1 lung xenograft intrarenal, tumor weight T/C
- PROTOCOL: NCI In Vivo Anticancer Drug Screen. Data for tumor model Human Lung LX-1 Xenograft (intrarenal inoculation) in NU/NU Swiss (nude) mice
- TEST_PARAMETERS: endpoint: mean tumor weight change; dose: 150.0 mg/kg/injection; schedule: Q04DX003 (sc); vehicle: saline; higher = larger tumour
Results filed as inconclusive are left out.

Record excerpt, results attached:
{"COMPOUND": "OCC12COCN1COC2", "T/C": "115 % of control"}
{"COMPOUND": "C1CC[N-]CC1.C1CC[N-]CC1.C1CC[N-]CC1.[Cl][Rh]([Cl])[Cl]", "T/C": "87 % of control"}
{"COMPOUND": "O=P1(NCCCl)OCCCN1CCCl (stereo unspecified)", "T/C": "109 % of control"}

Request body: readout T/C, system nude mice, LX-1 lung xenograft intrarenal, tumor weight T/C, query C[CH2][Ge]1([CH2]C)[CH2]CC2(CCN(CCCN(C)C)C2)C[CH2]1 . Return the value.
89 % of control

###

- Tested on: nude mice, LX-1 lung xenograft intrarenal, tumor weight T/C
- PROTOCOL: NCI In Vivo Anticancer Drug Screen. Data for tumor model Human Lung LX-1 Xenograft (intrarenal inoculation) in NU/NU Swiss (nude) mice
- TEST_PARAMETERS: endpoint: mean tumor weight change; dose: 0.25 mg/kg/injection; schedule: Q01DX010 (sc); vehicle: saline; higher = larger tumour
Inconclusive results are not listed.
Recorded T/C values for a group of compounds are listed next.

Record excerpt, results attached:
{"COMPOUND": "COc1cc([C@@H]2c3cc4c(c(O)c3C[C@H]3COC(=O)[C@@H]32)OCO4)cc(OC)c1O", "T/C": "74 % of control"}
{"COMPOUND": "C[N+](C)(C)c1ncnc2c1ncn2C1CCCO1 (stereo not drawn)", "T/C": "65 % of control"}

// below: T/C requested for another compound
# lookup: T/C of CCN1C=C/C(=C\C=C/c2cc[n+](CC)c3ccccc23)c2ccccc21
195 % of control

###

- Tested on: nude mice, LX-1 lung xenograft intrarenal, tumor weight T/C
- PROTOCOL: NCI In Vivo Anticancer Drug Screen. Data for tumor model Human Lung LX-1 Xenograft (intrarenal inoculation) in NU/NU Swiss (nude) mice
- TEST_PARAMETERS: endpoint: mean tumor weight change; dose: 40.0 mg/kg/injection; schedule: Q04DX003 (sc); vehicle: Klucel (hydroxypropylcellulose) (HPC); higher = larger tumour
- Procedure: The antitumor activity of compounds was measured in mice bearing transplantable tumors. Survival or tumor size were measured and the results are expressed as the measurement made in the treated group (T) divided by the measurement made in the vehicle treated control group (C). The tumor model used in this assay is Human Lung LX-1 Xenograft (intrarenal inoculation) in NU/NU Swiss (nude) mice
Records with an inconclusive call do not appear.
EXPERIMENTAL_ENDPOINT: T/C

{"MOLECULE": "Cc1cc(NCCN(C(C)C)C(C)C)nc(/N=C(\\N)Nc2ccc(Cl)c(C(F)(F)F)c2)n1", "MEASUREMENT_TARGET": "nude mice, LX-1 lung xenograft intrarenal, tumor weight T/C", "T/C": "45 % of control"}

# lookup: T/C of CC[PH+](CC)CC[S-].CC[PH+](CC)CC[S-].[Au+].[Au+]
105 % of control

Item: COC1C(C)OC(OC2CC(C)(O)Cc3cc4c(c(O)c32)C(=O)c2c(O)cc3c(c2C4=O)OC2OC3(C)C(O)C(N(C)C)C2O)C(OC)C1(C)OC (centres undefined)
98 % of control

Item: NC(Cc1ccc(N(CCCl)CCCl)cc1)C(=O)O (centres undefined)
22 % of control
